The measurements presented in this section are drawn from patent US10626349B2.

Here the recorded surfactant Pk area/RG Pk area, Bacteriorhodopsin/Chymotrypsin digest is given for each entry.
targetSystem: Bacteriorhodopsin digested with chymotrypsin (Halobacterium salinarum, UniProt P02945)
Sequence (P02945 14-261 limits assumed): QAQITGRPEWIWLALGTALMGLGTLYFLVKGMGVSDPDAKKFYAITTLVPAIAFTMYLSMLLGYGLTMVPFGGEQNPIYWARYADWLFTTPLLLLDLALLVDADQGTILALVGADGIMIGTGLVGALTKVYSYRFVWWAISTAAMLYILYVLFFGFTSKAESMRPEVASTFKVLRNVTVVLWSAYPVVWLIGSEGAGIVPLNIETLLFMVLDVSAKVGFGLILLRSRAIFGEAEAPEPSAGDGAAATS
experimentNotes: Bacteriorhodopsin/Chymotrypsin digest, HPLC peak area versus RapiGest control
Assay type: biochemical
runParameters: 0.025% surfactant, BR heated (boiled) with surfactant 5 minutes at 95° C., chymotrypsin 10:1, 1 hour at 37° C.; ratio to RapiGest control
Reply briefly: the number, and no unit.

// below: answered compounds
Q: Request the reported surfactant Pk area/RG Pk area, Bacteriorhodopsin/Chymotrypsin digest associated with CCCCCC/C=C/C(C)OC(=O)NCCCS(=O)(=O)O (stereo not shown)
Ans: 0.4

Q: Note, next up: CCCCCCCCCCCC(C)(C)OC(=O)Nc1ccc(N(CCCCS(=O)(=O)[O-])CCCCS(=O)(=O)O)cc1.[Na+]
Ans: 1.1

Q: Note, next up: CCCCCCCCCCCC(C)(C)OC(=O)NCCCS(=O)(=O)O
Ans: 1.5

Q: Note, next up: CCCCCCCCCCC(OC(=O)NCCCS(=O)(=O)O)c1ccccc1OC (stereo not shown)
Ans: 1

Q: Note, next up: CCCCCC(OC(=O)NCCCS(=O)(=O)O)c1ccccc1 (stereo not shown)
Ans: 0.34

Q: Note, next up: CCCCCCCCCSCC(C)(C)OC(=O)NCCCS(=O)(=O)O
Ans: 0.8

Q: Note, next up: CCCCCCOc1ccc(COC(=O)NCCCS(=O)(=O)O)cc1
Ans: 0.45

Q: Note, next up: CCCCCCCCCCCC(C)(C)OC(=O)NCC(O)CS(=O)(=O)[O-].[Na+] (stereo not shown)
Ans: 1.1

More entries:
Q: Request the reported surfactant Pk area/RG Pk area, Bacteriorhodopsin/Chymotrypsin digest associated with CCCCCCOc1ccc(C(OCCCS(=O)(=O)[O-])(c2ccccc2)c2ccccc2)cc1.[Na+]
Ans: 0.6

Q: Note, next up: CCCCCCCCCCC(OC(=O)NCCCS(=O)(=O)O)c1cc(OC)cc(OC)c1 (stereo not shown)
Ans: 0.71

Q: Note, next up: CCCCCCCCCCOc1ccc(C(OCCN(CCCCS(=O)(=O)[O-])CCCCS(=O)(=O)[O-])(c2ccccc2)c2ccccc2)cc1.[Na+].[Na+]
Ans: 1.2

Q: Note, next up: CCCCCC/C=C/C(C)OC(=O)NCC(O)CS(=O)(=O)[O-].[Na+] (stereo not shown)
Ans: 0.4

Q: Note, next up: CCCCCCCCCCCc1ccc(C(OCCc2ccc(N(CCCCS(=O)(=O)[O-])CCCCS(=O)(=O)[O-])cc2)(c2ccccc2)c2ccc(OCCCCCCCCCC)cc2)cc1.[Na+].[Na+] (stereo not shown)
Ans: 0.7

Q: Note, next up: CCCCCCCCCCC(OC(=O)NCCCS(=O)(=O)O)c1ccc(C(F)(F)F)cc1 (stereo not shown)
Ans: 0.8

Q: Note, next up: CCCCCCCCCCCCCCC(OC(=O)NCCCS(=O)(=O)[O-])c1ccc(OC)cc1.[Na+] (stereo not shown)
Ans: 1.3

Q: Note, next up: CCCCCCCCCCC1COC(c2cc(OCCCS(=O)(=O)[O-])ccc2[N+](=O)[O-])O1.[Na+] (stereo not shown)
Ans: 0.9
